Parameter: pIC50. Scope: all listed entries.
tested on: glutathione transferase (Rattus norvegicus, UniProt P04905)
Sequence (P04905 2-218 limits assumed): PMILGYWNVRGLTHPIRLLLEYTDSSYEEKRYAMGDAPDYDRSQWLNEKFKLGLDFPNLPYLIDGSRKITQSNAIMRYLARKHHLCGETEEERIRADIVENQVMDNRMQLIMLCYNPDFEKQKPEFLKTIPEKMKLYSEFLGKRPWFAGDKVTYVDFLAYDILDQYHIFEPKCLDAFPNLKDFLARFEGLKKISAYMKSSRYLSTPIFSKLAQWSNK
pIC50 is defined as minus the log10 of a concentration measured in mol/L.

Send back glutathione transferase (Rattus norvegicus, UniProt P04905) pIC50 of CCCCCc1cc2ccc3c(O)c4c(cc3c2c(O)c1C(=O)O)C(C)(C)c1cc(O)cc(O)c1C4=O [Benastatin A, benastatin A] only.
5.30

Proceeding to the next compound to report its pIC50.
Send back glutathione transferase (Rattus norvegicus, UniProt P04905) pIC50 of CCCCCc1cc2c(c(O)c1C(=O)O)-c1cc3c(c(O)c1CC2)C(=O)c1c(O)cc(O)cc1C3(C)C [Benastatin B, benastatin B] only.
5.74
